Biological target: human MetAP2 enzyme (Homo sapiens, UniProt P50579)
Sequence (P50579 whole entry): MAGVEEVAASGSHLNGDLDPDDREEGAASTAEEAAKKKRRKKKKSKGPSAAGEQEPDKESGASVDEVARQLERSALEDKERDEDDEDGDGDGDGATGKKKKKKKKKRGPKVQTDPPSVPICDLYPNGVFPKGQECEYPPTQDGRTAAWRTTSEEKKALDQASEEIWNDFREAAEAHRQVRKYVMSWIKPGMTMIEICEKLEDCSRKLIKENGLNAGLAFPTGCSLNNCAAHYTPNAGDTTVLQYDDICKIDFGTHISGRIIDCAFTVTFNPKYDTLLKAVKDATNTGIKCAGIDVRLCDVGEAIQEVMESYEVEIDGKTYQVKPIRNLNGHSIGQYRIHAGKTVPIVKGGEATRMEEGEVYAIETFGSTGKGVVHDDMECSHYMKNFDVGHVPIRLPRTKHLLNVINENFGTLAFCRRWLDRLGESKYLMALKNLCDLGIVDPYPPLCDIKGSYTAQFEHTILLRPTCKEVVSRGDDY
Experiment: MetAP2 enzyme assay, enzyme complexed with cobalt ions
Conditions: MetAP2 Co pIC50, MetAP2 enzyme complexed with cobalt ions; Met-AMC substrate at Km
Attribute measured: pIC50
Convention used: pIC50 is expressed as -log10 of the molar concentration.

Query string: Field request: pIC50 | item: COc1ccc(C(=O)N2CC(O)C2)cc1-c1cc(C(F)(F)F)cc2[nH]ncc12 [Example 328]
Result string: 7.90

Query string: Field request: pIC50 | item: Cc1nc(-n2cnnc2)ccc1-c1cc(C(F)(F)F)cc2[nH]ncc12 [Example 383]
Result string: 7.70

----------
Molecular target: human MetAP2 enzyme (Homo sapiens, UniProt P50579)
Assay: MetAP2 enzyme assay, enzyme complexed with manganese ions
Settings: MetAP2 Mn pIC50, MetAP2 enzyme complexed with manganese ions; Met-AMC substrate at Km
Each item that follows carries a reported pIC50.
Convention used: pIC50 is expressed as -log10 of the molar concentration.

Query string: Field request: pIC50 | item: COCCOc1ccc(-c2cc(C(F)(F)F)cc3[nH]ncc23)c(C)n1 [Example 362]
Result string: 7.80

Query string: Field request: pIC50 | item: FC(F)(F)c1cc(-c2ccc3[nH]ncc3c2)c2cn[nH]c2c1 [Example 236]
Result string: 8.20

Query string: Field request: pIC50 | item: COCc1[nH]nc(C)c1-c1cc(C(F)(F)F)cc2[nH]ncc12 [Example 323]
Result string: 7.90

Query string: Field request: pIC50 | item: CN1CCN(C(=O)c2cc(-c3cc(C(F)(F)F)cc4[nH]ncc34)cnc2F)CC1 [Example 289]
Result string: 8.20

Query string: Field request: pIC50 | item: Oc1cccnc1-c1cc(C(F)(F)F)cc2[nH]ncc12 [Example 214]
Result string: 7.80

Query string: Field request: pIC50 | item: FC(F)(F)c1cc(-c2cnc(-n3ccnc3)nc2)c2cn[nH]c2c1 [Example 217]
Result string: 8.00

Query string: Field request: pIC50 | item: Cc1nn2c(=O)[nH]ncc2c1-c1cc(C(F)(F)F)cc2[nH]ncc12 [Example 222]
Result string: 7.80

Query string: Field request: pIC50 | item: COc1nc(C(=O)N2CC(O)C2)ccc1-c1cc(C(F)(F)F)cc2[nH]ncc12 [Example 395]
Result string: 8.20

Query string: Field request: pIC50 | item: CN(C)C(=O)c1cccc(-c2cc(C(F)(F)F)cc3[nH]ncc23)c1 [Example 121]
Result string: 8.20

----------
Biological target: human MetAP2 enzyme (Homo sapiens, UniProt P50579)
Assay: MetAP2 enzyme assay, enzyme complexed with cobalt ions
Conditions: MetAP2 Co pIC50, MetAP2 enzyme complexed with cobalt ions; Met-AMC substrate at Km
Each item that follows carries a reported pIC50.
Convention used: pIC50 is expressed as -log10 of the molar concentration.

These solved cases illustrate the format of a correct answer.
| Smiles record | pIC50 |
| --- | --- |
| Cc1cc(=O)n(Cc2ccccn2)cc1-c1cc(C(F)(F)F)cc2[nH]ncc12 | 7.10 |
| CN1CCN(C(=O)c2cc(-c3cc(C(F)(F)F)cc4[nH]ncc34)ccn2)CC1 | 7.10 |
| Cc1c(-c2cc(C(F)(F)F)cc3[nH]ncc23)ccc2nnnn12 | 6.90 |
| Cc1c[nH]c2ncc(-c3cc(C(F)(F)F)cc4[nH]ncc34)cc12 | 7.00 |
| COc1nc(C#N)ccc1-c1cc(C(F)(F)F)cc2[nH]ncc12 | 6.90 |

Query string: What pIC50 appears in the records for this compound with human MetAP2 enzyme (Homo sapiens, UniProt P50579)? `Cn1cc(-c2cc(C(F)(F)F)cc3[nH]ncc23)ccc1=O`
Result string: 6.90

Query string: What pIC50 appears in the records for this compound with human MetAP2 enzyme (Homo sapiens, UniProt P50579)? `O=C(c1cccc(-c2cc(C(F)(F)F)cc3[nH]ncc23)c1)N1CCCC1`
Result string: 7.10

Query string: What pIC50 appears in the records for this compound with human MetAP2 enzyme (Homo sapiens, UniProt P50579)? `NS(=O)(=O)c1ccc(-c2cc(C(F)(F)F)cc3[nH]ncc23)cc1F`
Result string: 7.00

Query string: What pIC50 appears in the records for this compound with human MetAP2 enzyme (Homo sapiens, UniProt P50579)? `FC(F)(F)c1cc(-c2ccc(OCC3CC3)nc2)c2cn[nH]c2c1`
Result string: 6.90

Query string: What pIC50 appears in the records for this compound with human MetAP2 enzyme (Homo sapiens, UniProt P50579)? `COC(=O)c1ccc(-c2cc(C(F)(F)F)cc3[nH]ncc23)cn1`
Result string: 7.20

Query string: What pIC50 appears in the records for this compound with human MetAP2 enzyme (Homo sapiens, UniProt P50579)? `Cn1ccc2c(-c3cc(C(F)(F)F)cc4[nH]ncc34)cccc21`
Result string: 7.10

Query string: What pIC50 appears in the records for this compound with human MetAP2 enzyme (Homo sapiens, UniProt P50579)? `Cc1cccnc1-c1cc(C(F)(F)F)cc2[nH]ncc12`
Result string: 6.80

Query string: What pIC50 appears in the records for this compound with human MetAP2 enzyme (Homo sapiens, UniProt P50579)? `O=C(c1cc(-c2cc(C(F)(F)F)cc3[nH]ncc23)ccn1)N1CC(O)C1`
Result string: 7.10

----------
Molecular target: human MetAP2 enzyme (Homo sapiens, UniProt P50579)
Experiment: MetAP2 enzyme assay, enzyme complexed with cobalt ions
Details: MetAP2 Co pIC50, MetAP2 enzyme complexed with cobalt ions; Met-AMC substrate at Km
pIC50: −log10 of the molar value.
We use 7 as the dividing line for pIC50: on or above the line is y, below is n.

Use these answered entries as a reference point.
| Smiles record | Assigned class |
| --- | --- |
| FC(F)(F)c1cc(-c2cccc3cc[nH]c23)c2cn[nH]c2c1 | n |
| N#Cc1ccc(CO)c(-c2cc(C(F)(F)F)cc3[nH]ncc23)c1 | y |

Continue with the next molecule.
Query string: Please indicate if the recorded pIC50 for `O=C(NCCO)c1ncc(-c2cc(C(F)(F)F)cc3[nH]ncc23)cn1` meets or exceeds 7.
Result string: n

----------
Biological target: human MetAP2 enzyme (Homo sapiens, UniProt P50579)
Test: MetAP2 enzyme assay, enzyme complexed with cobalt ions
Conditions: MetAP2 Co pIC50, MetAP2 enzyme complexed with cobalt ions; Met-AMC substrate at Km
Attribute measured: pIC50
Convention used: pIC50 is expressed as -log10 of the molar concentration.

| Smiles record | Reported value |
| --- | --- |
| Cc1nc2[nH]c(O)nc2cc1-c1cc(C(F)(F)F)cc2[nH]ncc12 | 7.90 |
| COc1cc(C(=O)N2CCOCC2)ccc1-c1cc(C(F)(F)F)cc2[nH]ncc12 | 7.40 |

Next molecule, pIC50 to be filled in.
Query string: Field request: pIC50 | item: `FC(F)(F)c1cc(-c2cccc(-n3cccn3)c2)c2cn[nH]c2c1`
Result string: 6.80

----------
Target: UniProt:P50579
Assay: MetAP2 enzyme assay, enzyme complexed with manganese ions
Conditions: MetAP2 Mn pIC50, MetAP2 enzyme complexed with manganese ions; Met-AMC substrate at Km
Each item that follows carries a reported pIC50.
Convention used: pIC50 is expressed as -log10 of the molar concentration.

| Smiles record | Reported value |
| --- | --- |
| OCCn1cc(-c2cc(C(F)(F)F)cc3[nH]ncc23)cn1 | 8.20 |

Query string: Field request: pIC50 | item: `CN1CCN(C(=O)c2ccc(-c3cc(C(F)(F)F)cc4[nH]ncc34)cn2)CC1`
Result string: 7.90

Query string: Field request: pIC50 | item: `O=C(NCCO)c1ccc(-c2cc(C(F)(F)F)cc3[nH]ncc23)c(Cl)c1`
Result string: 8.00

Query string: Field request: pIC50 | item: `Cc1nn(CC(N)=O)c(C)c1-c1cc(C(F)(F)F)cc2[nH]ncc12`
Result string: 7.80

Query string: Field request: pIC50 | item: `COc1ncc(-c2cc(C(F)(F)F)cc3[nH]ncc23)cc1C(N)=O`
Result string: 8.20

Query string: Field request: pIC50 | item: `CS(=O)(=O)c1cccc(-c2cc(C(F)(F)F)cc3[nH]ncc23)c1`
Result string: 8.20

----------
Biological target: human MetAP2 enzyme (Homo sapiens)
Assay: MetAP2 enzyme assay, enzyme complexed with manganese ions
Settings: MetAP2 Mn pIC50, MetAP2 enzyme complexed with manganese ions; Met-AMC substrate at Km
Each item that follows carries a reported pIC50.
Convention used: pIC50 is expressed as -log10 of the molar concentration.

These solved cases illustrate the format of a correct answer.
| Molecule | Target or test system | pIC50 |
| --- | --- | --- |
| NS(=O)(=O)c1cccc(-c2cc(C(F)(F)F)cc3[nH]ncc23)c1 | human MetAP2 enzyme (Homo sapiens) | 7.80 |
| FC(F)(F)c1cc(-c2ccnc3ccccc23)c2cn[nH]c2c1 | human MetAP2 enzyme (Homo sapiens) | 7.90 |
| FC(F)(F)c1cc(-c2cnc(NC3CC3)nc2)c2cn[nH]c2c1 | human MetAP2 enzyme (Homo sapiens) | 8.20 |
| Cn1cc(-c2cc(C(F)(F)F)cc3[nH]ncc23)c(=O)n(CCO)c1=O | human MetAP2 enzyme (Homo sapiens) | 7.90 |

Query string: Field request: pIC50 | item: `Cn1ncc(-c2cc(C(F)(F)F)cc3[nH]ncc23)c1CO`
Result string: 8.20
